Measurement Target: human LPA1 (Homo sapiens, UniProt Q92633)
Construct: expressed in transfected cells; host or cells: CHO-K1
Sequence (Q92633 whole entry): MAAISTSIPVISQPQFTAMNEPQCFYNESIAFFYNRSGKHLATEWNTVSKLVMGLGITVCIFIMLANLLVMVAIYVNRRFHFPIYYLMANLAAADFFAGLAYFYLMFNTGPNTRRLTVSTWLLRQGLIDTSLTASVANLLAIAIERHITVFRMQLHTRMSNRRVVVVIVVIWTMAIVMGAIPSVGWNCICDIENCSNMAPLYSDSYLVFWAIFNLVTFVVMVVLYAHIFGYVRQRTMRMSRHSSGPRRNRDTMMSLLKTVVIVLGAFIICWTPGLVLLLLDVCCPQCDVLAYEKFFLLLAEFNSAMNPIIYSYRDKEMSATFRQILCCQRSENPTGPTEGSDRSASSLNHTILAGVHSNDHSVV
Measurement Notes: In vitro LPA1 calcium flux antagonist assay - Bioduro protocol
Format: cell-based
Condition Details: CHO-K1 cells overexpressing human LPA1 and G15a; LPA challenge at EC80; calcium mobilization on FLIPR Tetra; read-out: IC50
pIC50: −log10 of the molar value.
Assay Endpoint: pIC50

[[record]]
molecule = "COc1cc(-c2c(C)cc(NC3(C(=O)O)CCOCC3)cc2CCC2CCOC2)cc(OC)c1C (stereo not shown) [Compound 308]"
assay_endpoint = "pIC50"
observed = 7.63

[[record]]
molecule = "COc1cc(-c2ccc(NC3(C(=O)O)C[C@@H]3C)cc2COC2Cc3ccccc3C2)cc(OC)c1C (stereo partly shown) [Compound 119]"
assay_endpoint = "pIC50"
observed = 7.45

[[record]]
molecule = "CCOc1cc(OC)cc(-c2ccc(NC3(C(=O)O)CCOCC3)cc2COC2CC2)c1F [Compound 288]"
assay_endpoint = "pIC50"
observed = 7.92

[[record]]
molecule = "CCOc1cccc(-c2ccc(NC3(C(=O)O)CCOCC3)cc2COC2CC2)c1C [Compound 355]"
assay_endpoint = "pIC50"
observed = 8.52

[[record]]
molecule = "COc1cc(-c2ccc(NC3(C(=O)O)CCOCC3)cc2COC2CC2)c(C(F)F)c(OC)n1 [Compound 314]"
assay_endpoint = "pIC50"
observed = 7.43

[[record]]
molecule = "CCOc1cccc(-c2ccc(NC3(C(=O)O)CC3)cc2COC2CCCC2)c1C(F)F [Compound 317]"
assay_endpoint = "pIC50"
observed = 7.85


(I) COc1cc(OC)cc(-c2c(C)cc(NC3(C(=O)O)CCOCC3)cc2COC2CCCC2)c1 [Compound 156]
(II) COC(=O)N1CCC(Nc2ccc(-c3cc(OC)c(C)c(OC)c3)c(COC3CCCC3)c2)(C(=O)O)CC1 [Compound 140]
Req: Would you mind telling me which has the lower recorded pIC50 between I and II ? In your reply, give the label of the chosen option.
Resp: I

(A) CCOc1cncc(-c2ccc(NC3(C(=O)O)CCOCC3)c(F)c2COC2CC2)c1C(F)F [Compound 409]
(B) CCOc1cncc(-c2ccc(OC3(C(=O)O)CCOCC3)cc2COC2CC2)c1C(F)F [Compound 415]
Req: Would you mind telling me which has the lower recorded pIC50 between A and B ? In your reply, give the label of the chosen option.
Resp: A
(A: 6.64, B: 7.18)

(I) COc1cc(-c2ccc(NC3(C(=O)O)CCOCC3)cc2COCC(C)C)c(F)c(OC)c1C [Compound 336]
(II) COc1cc(-c2ccc(NC3(C(=O)O)CCOCC3)cc2COC2CC2)cc(OC2CC2)c1C [Compound 341]
Req: Please tell me which of the two, I or II , has the higher reported pIC50 value. In your reply, give the label of the chosen option.
Resp: I

---

Measurement Target: human LPA1 (Homo sapiens)
Construct: expressed in transfected cells; host or cells: CHO-K1
Measurement Notes: In vitro LPA1 calcium flux antagonist assay - Bioduro protocol
Assay type: cell-based
Condition Details: Table B3; CHO-K1 cells overexpressing human LPA1 and G15a, LPA challenge at EC80; read-out: Activity (IC50 class)
pIC50: −log10 of the molar value.
The reader will find reported pIC50 values listed item by item below.

Worked examples follow.
[[record]]
molecule = "COc1c(C(C)OC)ccc(-c2ccc(NC3(C(=O)O)CCOCC3)cc2COC2CCCC2)c1C (single isomer, unassigned) [Compound 241]"
measurement_target = "human LPA1 (Homo sapiens)"
observed = "6.00 to 7.00"

[[record]]
molecule = "COc1cc(OC)c(Cl)c(-c2ccc(NC3(C(=O)O)CCOCC3)cc2COC2CC2)c1"
measurement_target = "human LPA1 (Homo sapiens)"
observed = "> 7.00"

[[record]]
molecule = "CCOc1c(C)ccc(-c2ccc(NC3(C(=O)O)CCOCC3)cc2COC2CC2)c1C"
measurement_target = "human LPA1 (Homo sapiens)"
observed = "> 7.00"

[[record]]
molecule = "CCOc1cccc(-c2ccc(NC3(C(=O)O)CCCC3)cc2COC2CC2)c1C(F)F"
measurement_target = "human LPA1 (Homo sapiens)"
observed = "> 7.00"

[[record]]
molecule = "O=C(O)C1(Nc2ccc(-c3cccc(CCO)c3F)c(COC3CC3)c2)CCOCC1"
measurement_target = "human LPA1 (Homo sapiens)"
observed = "< 6.00"

[[record]]
molecule = "CCOc1c(F)ccc(-c2ccc(NC3(C(=O)O)CCOCC3)cc2COC2CCCC2)c1F"
measurement_target = "human LPA1 (Homo sapiens)"
observed = "6.00 to 7.00"

[[record]]
molecule = "COc1cc(-c2ccc(NC3(C(=O)O)CCOCC3)cc2COC(C)C)c(F)c(OC)c1C"
measurement_target = "human LPA1 (Homo sapiens)"
observed = "> 7.00"

[[record]]
molecule = "COc1cc(-c2ccc(NC3(C(=O)O)CCC(C)(OC)CC3)cc2COC2CCCC2)c(F)c(OC)c1C (single isomer, unassigned) [Compound 237]"
measurement_target = "human LPA1 (Homo sapiens)"
observed = "> 7.00"

[[record]]
molecule = "COc1cc(OC)cc(-c2ccc(NC3(C(=O)O)CCOCC3)cc2CO[C@H]2CCC[C@H]2NC(C)=O)c1"
measurement_target = "human LPA1 (Homo sapiens)"
observed = "< 6.00"

[[record]]
molecule = "CCOc1cc(OC)cc(-c2ccc(NC3(C(=O)O)CC3)cc2COC2CC2)c1F"
measurement_target = "human LPA1 (Homo sapiens)"
observed = "6.00 to 7.00"


Req: Form: Entry = COc1cc(OC2CC2)cc(-c2ccc(OC3(C(=O)O)CCOCC3)cc2COC2CCCC2)c1 | System = human LPA1 (Homo sapiens) | pIC50 = ____
Resp: 6.00 to 7.00

Req: Form: Entry = CCc1cccc(-c2ccc(NC3(C(=O)O)CCOCC3)cc2COC2CC2)c1F | System = human LPA1 (Homo sapiens) | pIC50 = ____
Resp: 6.00 to 7.00

Req: Form: Entry = COc1cc(-c2cc(F)c(NC3(C(=O)O)CCOCC3)cc2COC2CCCC2)c(F)c(OC)c1C | System = human LPA1 (Homo sapiens) | pIC50 = ____
Resp: 6.00 to 7.00
